- subject_of_test: Carbonic anhydrase (Methanobacterium thermoautotrophicum) (UniProt Q50565)
- Sequence (whole entry): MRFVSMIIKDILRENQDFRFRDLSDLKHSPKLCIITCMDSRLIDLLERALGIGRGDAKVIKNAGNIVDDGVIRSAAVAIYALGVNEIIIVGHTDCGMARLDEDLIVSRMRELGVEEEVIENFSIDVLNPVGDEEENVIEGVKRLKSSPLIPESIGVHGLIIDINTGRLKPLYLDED
- assay_method_text: Activation of archaea Methanobacterium thermoautotrophicum recombinant carbonic anhydrase by stopped flow CO2 hydration method
- test_parameters: Methanothermobacter thermautotrophicus
Items are presented alongside their recorded Ka.
quantity_kind: Ka (µM)

> print(dat)
                  structure.notation  quantity.kind  obs.value
 1    N[C@@H](Cc1ccc(O)c(O)c1)C(=O)O             Ka       11.4
 2                       NCCN1CCOCC1             Ka       18.5
 3            NCCc1c[nH]c2ccc(O)cc12             Ka         62
 4  N[C@@H](Cc1c[nH]c2ccccc12)C(=O)O             Ka       16.9
 5                        NCc1ccccn1             Ka       18.7
 6                 NCCc1ccc(O)c(O)c1             Ka         51
 7     N[C@H](Cc1ccc(O)c(O)c1)C(=O)O             Ka       15.6
 8                     NCCc1c[nH]cn1             Ka         76
 9        CNC[C@@H](O)c1ccc(O)c(O)c1             Ka       11.5
10        Nc1ccc(C[C@H](N)C(=O)O)cc1             Ka         89
11         N[C@H](Cc1c[nH]cn1)C(=O)O             Ka         57
12        N[C@@H](Cc1c[nH]cn1)C(=O)O             Ka         69
13        N[C@H](Cc1ccc(O)cc1)C(=O)O             Ka       19.2
14       N[C@@H](Cc1ccc(O)cc1)C(=O)O             Ka       10.5
15                       NCCc1ccccn1             Ka         40
16   N[C@H](Cc1c[nH]c2ccccc12)C(=O)O             Ka         41
17                       NCCN1CCNCC1             Ka       13.8
